The measured values listed here are drawn from paper PMC9437215.

# Procedure text: Cell viability assay (MTS), 3T3
# Type: cell-based
# Condition context: mouse, 3T3 cells; 3T3, 100 μmol/L, 48 h
Assay endpoint: viability at 48 h, 100 μmol/L

Q: Field request: viability at 48 h, 100 μmol/L | item: COc1c(N2CCCC(N(C)C(C)=O)C2)c(F)cc2c(=O)c(C(=O)O)cn(C3CC3)c12 (stereo not shown)
Ans: ≥ 80%

* * *

# System: MRSA
# Procedure text: MIC and MBC determinations in vitro, MRSA
# Assay type: cell-based
# Condition context: Staphylococcus aureus, MRSA, 24 h, MRSA clinical isolate, solid medium 24 h; read-out: MBC
Listing of recorded log10 MBC by entry.
Would you kindly interpret these values as log10 of MBC expressed in µg/mL?

Molecule	Assay endpoint	Value observed
CCCCCCCCCC(=O)N(C)C1CCCN(c2c(F)cc3c(=O)c(C(=O)O)cn(C4CC4)c3c2OC)C1 (stereo not shown)	log10 MBC	1.30
C[C@H]1COc2c(C3(N)CC3)c(F)cc3c(=O)c(C(=O)O)cn1c23 [Compound 1g, pazufloxacin, reference compound]	log10 MBC	-0.50
COc1c(N2CCCC(N(C)C(=O)CC#N)C2)c(F)cc2c(=O)c(C(=O)O)cn(C3CC3)c12 (stereo not shown)	log10 MBC	-0.11
CCCC(=O)N(C)C1CCCN(c2c(F)cc3c(=O)c(C(=O)O)cn(C4CC4)c3c2OC)C1 (stereo not shown)	log10 MBC	-1.11
COc1c(N2C[C@@H]3CCCN[C@@H]3C2)c(F)cc2c(=O)c(C(=O)O)cn(C3CC3)c12 [Compound 1f, moxifloxacin, reference compound]	log10 MBC	-1.41
COc1c(N2CC3CCCN(C(C)=O)C3C2)c(F)cc2c(=O)c(C(=O)O)cn(C3CC3)c12 (stereo not shown)	log10 MBC	-0.20

Now consider a different molecule.
Q: Field request: log10 MBC | item: COc1c(N2CCCC(N(C)C(=O)c3ccco3)C2)c(F)cc2c(=O)c(C(=O)O)cn(C3CC3)c12 (stereo not shown)
Ans: -0.81

* * *

# Test system: E. coli
# Procedure text: MIC and MBC determinations in vitro, E. coli
# Format: cell-based
# Condition context: Escherichia coli; E. coli clinical isolate, solid medium 24 h
Listing of recorded MBC by entry.
Dear colleague, please return just the value in µg/mL, with no unit written.

Observe how each entry below is paired with its result.
Molecule	Readout unit	MBC
COc1c(N2CCCC(N(C)C(=O)C3CC3)C2)c(F)cc2c(=O)c(C(=O)O)cn(C3CC3)c12 (stereo not shown)	µg/mL	20
COc1c(N2CCCC(N(C)C(=O)C3CCCO3)C2)c(F)cc2c(=O)c(C(=O)O)cn(C3CC3)c12 (stereo not shown)	µg/mL	20

Q: Field request: MBC | item: CCCCC(=O)N(C)C1CCCN(c2c(F)cc3c(=O)c(C(=O)O)cn(C4CC4)c3c2OC)C1 (stereo not shown)
Ans: 20

* * *

# Tested on: MRSA
# Procedure text: MIC and MBC determinations in vitro, MRSA
# Type: cell-based
# Condition context: Staphylococcus aureus, MRSA, 24 h, MRSA clinical isolate, solid medium 24 h; read-out: MBC
# Method: The three strains of MRSA, P. aeruginosa, and E. coli used in this experiment were from clinical isolates, which were provided by the People’s Liberation Army 304 Hospital. To evaluate the antibacterial activities of newly synthesized N (7) position modified fluoroquinolones, the minimum inhibitory (MIC) and bactericidal (MBC) concentrations of these compounds toward bacteria were measured.
We label by threshold. Values of MBC strictly beneath 0.2 µg/mL are 1.0. Values of 0.2 µg/mL and up are 0.0.

Molecule	Assigned category
COc1c(N2CCCC(N(C)C(=O)C(C)N)C2)c(F)cc2c(=O)c(C(=O)O)cn(C3CC3)c12 (stereo not shown)	0.0
CCCCC(=O)N(C)C1CCCN(c2c(F)cc3c(=O)c(C(=O)O)cn(C4CC4)c3c2OC)C1 (stereo not shown)	1.0
COc1c(N2CCCC(N(C)C(=O)C3CC3)C2)c(F)cc2c(=O)c(C(=O)O)cn(C3CC3)c12 (stereo not shown)	1.0

Q: Report whether reported MBC is lower than 0.2 µg/mL (strictly) for CCCCCCC(=O)N(C)C1CCCN(c2c(F)cc3c(=O)c(C(=O)O)cn(C4CC4)c3c2OC)C1 (stereo not shown)
Ans: 0.0

Q: Would you mind doing CCCCCCCC(=O)N(C)C1CCCN(c2c(F)cc3c(=O)c(C(=O)O)cn(C4CC4)c3c2OC)C1 (stereo not shown) as well?
Ans: 0.0

Q: Would you mind doing CCC(=O)N(C)C1CCCN(c2c(F)cc3c(=O)c(C(=O)O)cn(C4CC4)c3c2OC)C1 (stereo not shown) as well?
Ans: 1.0

Q: Would you mind doing COc1c(N2CCCC(N(C)C(=O)c3cccnc3)C2)c(F)cc2c(=O)c(C(=O)O)cn(C3CC3)c12 (stereo not shown) as well?
Ans: 1.0

* * *

# Test system: P. aeruginosa
# Procedure text: MIC and MBC determinations in vitro, P. aeruginosa
# Assay type: cell-based
# Condition context: Pseudomonas aeruginosa; P. aeruginosa clinical isolate, 24 h culture; read-out: MIC
We label by threshold. Values of MIC strictly beneath 0.4 µg/mL are 1. Values of 0.4 µg/mL and up are -1.

Answered cases to consult:
Molecule	Experimental target	Assigned category
COc1c(N2CCCC(N(C)C(=O)C3CC3)C2)c(F)cc2c(=O)c(C(=O)O)cn(C3CC3)c12 (stereo not shown) [Compound 11-e]	P. aeruginosa	1
COc1c(N2CCCC(N(C)C(=O)c3cccnc3)C2)c(F)cc2c(=O)c(C(=O)O)cn(C3CC3)c12 (stereo not shown) [Compound 15-e]	P. aeruginosa	1
CCCCCCCC(=O)N(C)C1CCCN(c2c(F)cc3c(=O)c(C(=O)O)cn(C4CC4)c3c2OC)C1 (stereo not shown) [Compound 8-e]	P. aeruginosa	-1
COc1c(N2CCCC(N(C)C(=O)C3CCCO3)C2)c(F)cc2c(=O)c(C(=O)O)cn(C3CC3)c12 (stereo not shown) [Compound 14-e]	P. aeruginosa	1
CCCCCCCCCC(=O)N(C)C1CCCN(c2c(F)cc3c(=O)c(C(=O)O)cn(C4CC4)c3c2OC)C1 (stereo not shown) [Compound 10-e]	P. aeruginosa	-1
CNC1CCCN(c2c(F)cc3c(=O)c(C(=O)O)cn(C4CC4)c3c2OC)C1 (stereo not shown) [Compound 1e, balofloxacin]	P. aeruginosa	1
COc1c(N2CCCC(N(C)C(C)=O)C2)c(F)cc2c(=O)c(C(=O)O)cn(C3CC3)c12 (stereo not shown) [Compound 2-e]	P. aeruginosa	1
COc1c(N2CCCC(N(C)C(=O)CC#N)C2)c(F)cc2c(=O)c(C(=O)O)cn(C3CC3)c12 (stereo not shown) [Compound 22-e]	P. aeruginosa	-1

Moving on to another molecule below.
Q: Report whether reported MIC is lower than 0.4 µg/mL (strictly) for COc1c(N2CCCC(N(C)C(=O)c3ccccc3)C2)c(F)cc2c(=O)c(C(=O)O)cn(C3CC3)c12 (stereo not shown) [Compound 12-e]
Ans: 1

* * *

# Tested on: E. coli
# Procedure text: MIC and MBC determinations in vitro, E. coli
# Type: cell-based
# Condition context: Escherichia coli; E. coli clinical isolate, solid medium 24 h
Listing of recorded MBC by entry.

Compound	MBC
CCCCCC(=O)N(C)C1CCCN(c2c(F)cc3c(=O)c(C(=O)O)cn(C4CC4)c3c2OC)C1 (stereo not drawn)	20 µg/mL

Q: Give the reported MBC for CCCC(=O)N(C)C1CCCN(c2c(F)cc3c(=O)c(C(=O)O)cn(C4CC4)c3c2OC)C1 (stereo not drawn) (system: E. coli).
Ans: 20 µg/mL

Q: Would you mind doing COc1c(N2CCCC(N(C)C(=O)c3ccco3)C2)c(F)cc2c(=O)c(C(=O)O)cn(C3CC3)c12 (stereo not drawn) as well?
Ans: 20 µg/mL
